Assay: Acute Toxicity
Settings: mouse, in vivo, sc

molecule: CNCC1=CC[C@@H](N)[C@@H](O[C@H]2[C@H](O)[C@@H](O[C@H]3OC[C@](C)(O)[C@H](NC)[C@H]3O)[C@H](N)C[C@@H]2N)O1 [Antibiotic G-52]
LD50 [mg/kg]: 400
